The origin of these recorded values is ChEMBL document CHEMBL4196010.

Item-by-item account of MIC
Tested on: Mycobacterium tuberculosis
Assay: Antitubercular activity against wild-type isoniazid-resistant Mycobacterium tuberculosis harboring katG mutant after 5 days by microplate alamar blue assay
Type: functional
observation-type: MIC (µM)

> print(dat)
                        structure.as.smiles  observation.type  relation.symbol  number
1  CC(=O)Nc1ccc(Cl)cc1C(F)(F)C(=O)NNC(=O)c1ccncc1               MIC                =   136.6
2                           NNC(=O)c1ccncc1               MIC                >      80
3  CC(=O)Nc1ccccc1C(=O)C(=O)NNC(=O)c1ccncc1               MIC                =    19.2
4  CC(=O)Nc1ccccc1C(F)(F)C(=O)NNC(=O)c1ccncc1               MIC                =   143.7
5  CC(=O)Nc1ccc(F)cc1C(F)(F)C(=O)NNC(=O)c1ccncc1               MIC                =   130.9
6  CC(=O)Nc1ccc(C)cc1C(F)(F)C(=O)NNC(=O)c1ccncc1               MIC                =   138.1
